B1: library; numbered along this chain (parent)
chain: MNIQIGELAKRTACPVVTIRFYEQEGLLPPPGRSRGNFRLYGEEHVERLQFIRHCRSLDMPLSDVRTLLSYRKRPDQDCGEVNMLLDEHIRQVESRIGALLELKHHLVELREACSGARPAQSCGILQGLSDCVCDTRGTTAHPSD

variants of: B1; experiment: sfGFP reporter fluorescence (15 h) (µM FITC); higher = stronger transcriptional activation; details: library round: Round 1; ligand: 1 µM Pb
Kindly note that classification relies on sfGFP reporter fluorescence with these boundaries: LOW: < 0.07; MEDIUM: ≥ 0.07 and < 0.1; HIGH: ≥ 0.1

Example entries and their recorded answers appear below.
MNIQIGELAKRTACPVVTIRFYEQEGLLPPPGRSRGNFRLYGEEHVERLQFIRHCRSLDMPLSDVRTLLSYRKRPDQDCGEVNMLLDEHIRQVESRIGALLELKHHLVELREACSGARPAQSCGILQGLSHCVCATRGTTAHPSD [D131H D135A] : MEDIUM
MNIQIGELAKRTACPVVTIRFYEQEGLLPPPGRSRGNFRLYGEEHVERLQFIRHCRSLDMPLSDVRTLLSYRKRPDQDCGEVNMLLDEHIRQVESRIGALLELVHHLVELAEACSGARPAQSCGILQGLSDCVCDTRGTTAHPSD [K104V R111A] : MEDIUM
MNIQIGELAKRTACPVVTIRFYEQEGLLPPPGRSRGNFRLYGEEHVERLQFIRHCRSFDMPLSDVRTLLSYRKRPDQDCGEVNMLLDEHIRQVESRIGALLELVHHLVELREACSGARPAQSCGILQGLSDCVCDTRGTTAHPSD [L58F K104V] : MEDIUM
MNIQIGELAKRTACPVVTIRFYEQEGLLPPPGRSRGNFRLYGEEHVERLQFIRHCRSLDMPLSDVRTLLSYRKRPDQDCGEVNMLLDEHIRQVESRIGALLELVHHLVELREACSGARPAQSCGILQMLSDCVCATRGTTAHPSD [K104V G128M D135A] : HIGH
MNIQIGELAKRTACPVVTIRFYEQEGLLPPPGRSRGNFRLYGEEHVERLQFIRHCRSLDMPLSDVRTLLSYRKRPDQDCGEVTMLLDEHIRQVESRIGALLELKHHLVALREACSGARPAQSCGILQGLSDCVCDTRGTTAHYSD [N83T E109A P143Y] : MEDIUM
MNIQIGELAKRTACPVVTIRFYEQEGLLPPPGRSRGNFRLYGEEHVERLQFIRHCRSLDMPLSDVRTLLSYRKRPDQDCGEVTMLLDEHIRQVESRIGALLELKHHLVELREACSGARPAQSCGILQGLSACVCDTRGTTAHISD [N83T D131A P143I] : MEDIUM
MNIQIGELAKRTACPVVTIRFYEQEGLLPPPGRSRGNFRLYGEEHVERLQFIRHCRSLDMPLSTVRTLLSYRKRPDQDCGEVNMLLDEHIRQVESRIGALLELKHHLVELFEACSGARPAQSCGILQGLSDCVCDTRGTTAHPSD [D64T R111F] : HIGH
MNIQIGELAKRTACPVVTIRFYEQEGLLPPPGRSRGNFRLYGEEHVERLQFIRHCRSLDMPLSKVRTLLSYRKRPDQDCGEVNMLLDEHIRQVESRIGALLELKHHLVELREAISGARPAQSCGILQGLSDCVCDTRGTTAHPSD [D64K C114I] : LOW

Category of MNIQIGELAKRTACPVVTIRFYEQEGLLPPPGRSRGNFRLYGEEHVERLQFIRHCRSLDMPLSTVRTLLSYRKRPDQDCGEVNMLLDEHIRQVESRIGALLELKHHLVELAEACSGARPAQSCGILQGLSDCVCDTRGTTAHPSD [D64T R111A] : HIGH

Which bin, given its sfGFP reporter fluorescence, does MNIQIGELAKRTACPVVTIRFYEQEGLLPPPGRSRGNFRLYGEEHVERLQFIRHCRSLDMPLSDVRTLLSYRKRPDQDCGEVTMLLDEHIRQVESRIGALLELKHHLVELFEACSGARPAQSCGILQGLSDCVCDTRGTTAHPSD [N83T R111F] occupy? LOW

Sourced from the supplement of paper PMC12783771
